target: SpBbc1; assay: SPOT peptide array binding signal intensity (averaged, normalized) (arbitrary units (background-subtracted, floor 0; scale differs between SH3 domains)); higher = stronger binding of the SH3 domain to the peptide
// reported SPOT peptide array binding signal intensity for each item listed
measure: SPOT peptide array binding signal intensity

{"binder": "LPMNIQPDLPPRKIM", "recorded-result": "≤ 0"}
{"binder": "DTIDNVKSKIQDKEG", "recorded-result": "≤ 0"}
{"binder": "DLPLPDLPPEPPTEL", "recorded-result": "≤ 0"}

Numbers sourced from the supplement of paper PMC4466140.
